The entries below are paired with their reported IC50.
molecular target: Induced myeloid leukemia cell differentiation protein Mcl-1 (Homo sapiens, UniProt Q07820); format: functional
Sequence (Q07820 whole entry): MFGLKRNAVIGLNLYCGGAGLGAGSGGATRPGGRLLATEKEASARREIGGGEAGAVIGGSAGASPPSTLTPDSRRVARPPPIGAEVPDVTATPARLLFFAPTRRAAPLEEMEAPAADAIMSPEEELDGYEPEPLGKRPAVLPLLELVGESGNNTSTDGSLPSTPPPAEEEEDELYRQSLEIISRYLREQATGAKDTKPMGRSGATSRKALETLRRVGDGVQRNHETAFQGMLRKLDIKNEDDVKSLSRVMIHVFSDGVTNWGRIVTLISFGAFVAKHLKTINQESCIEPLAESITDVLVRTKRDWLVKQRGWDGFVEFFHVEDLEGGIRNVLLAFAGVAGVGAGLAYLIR
The source made the active and inactive calls.

molecule: CSc1nc(SCCO)c2sc3nc(-c4ccco4)c4c(c3c2n1)CC(C)(C)OC4
IC50: 1.54 µM (active)

molecule: COc1ccc(-c2ccc(/C=N/NC(=O)c3cccnc3)o2)c([N+](=O)[O-])c1
IC50: 3.42 µM (active)

molecule: COc1ccc(/C=C2\SC(=O)N(CCC(=O)Nc3ccc(S(=O)(=O)Nc4nccs4)cc3)C2=O)cc1
IC50: 3.11 µM (active)

molecule: Cc1cc(C(=O)COC(=O)c2cc(O)c3ccccc3c2O)c(C)n1CC1CCCO1 (stereo not given)
IC50: 3.09 µM (active)

molecule: O=[N+]([O-])c1ccc2c(c1)=[N+]([O-])C1(CCCCC1)[N+]=2[O-]
IC50: 4.85 µM (active)

Just for reference, ChEMBL document CHEMBL1201862 is where these values come from.
